- system: UniProt P41968
- Sequence (P41968 whole entry): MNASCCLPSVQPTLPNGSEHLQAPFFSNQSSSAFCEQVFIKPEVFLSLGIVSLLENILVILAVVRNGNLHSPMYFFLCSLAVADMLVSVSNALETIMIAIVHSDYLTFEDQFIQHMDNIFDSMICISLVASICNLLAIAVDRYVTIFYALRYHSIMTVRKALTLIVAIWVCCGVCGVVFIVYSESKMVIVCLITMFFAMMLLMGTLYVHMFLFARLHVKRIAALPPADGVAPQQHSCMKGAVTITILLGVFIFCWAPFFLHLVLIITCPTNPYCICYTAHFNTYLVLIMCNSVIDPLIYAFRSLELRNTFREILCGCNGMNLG
endpoint: pKi
Give bare numbers, as −log10 of the molar value.

Challenge: Can you look up the measured pKi of Cc1ccc(N2CCN(C(=O)[C@@H]3CN(C4CCOCC4)C[C@H]3c3ccc(Cl)cc3)CC2)c([C@@H](N)C(C)C)c1 for me?
Response given: 5.80

---

- procedure_summary: Distribution coefficient, log D by shake flake method
- Type: physicochemical
- measurement_context: octanol/water
endpoint: logD
Numbers only.

Challenge: Can you look up the measured logD of Cc1ccc(N2CCN(C(=O)[C@@H]3CN(C4CCOCC4)C[C@H]3c3ccc(Cl)cc3)CC2)c([C@@H](N)C(C)C)c1 for me?
Response given: 1.8
